molecular target: Phosphodiesterase 3 (Homo sapiens, UniProt Q14432+Q13370); test: Inhibition in vitro of Phosphodiesterase 3 isolated from guinea pig cardiac ventricle; assay type: protein assay, Cavia porcellus; conditions: target entry is the homologue from another species
measured metric: IC50 (µM)

* COc1cc2cc(CO)c(CO)c(-c3ccn(C)c(=O)c3)c2cc1OC | 20

1: CCOc1cc2cc(CO)c(CO)c(-c3cc(N)c(OC)c(OC)c3)c2cc1OCC.Cl
2: COc1cc2cc(CO)c(CO)c(Cc3cc(OC)c(OC)c(OC)c3)c2cc1OC
3: CCCCn1ccc(-c2c(CO)c(CO)cc3cc(OCC)c(OCC)cc23)cc1=O
Query: Rank items: key IC50, increasing. Reply: labels, ordered per the request.
Response: 2, 1, 3

Data origin: ChEMBL document CHEMBL1129366
